Known AUC(0-inf) of a selection of compounds
Test: Pharmacokinetics in ICR mice after intravenous and intragastric administration
Format: in vivo
Conditions: male, ICR, mouse, plasma, po, 5 mg/kg, ICR mice, PO 5 mg/kg, mean of 3 animals
Express the result in ng·h/mL but write the number alone.

COc1ncc(-c2nc3c(n2C(C)C)[C@@]2(C(=O)Nc4cc(Cl)ccc42)N(c2cc(Cl)ccc2F)C3=O)c(OC)n1 ... 6990

Pending compound:
The reported AUC(0-inf) of the compound "COc1cc(OC)c(-c2nc3c(n2C(C)C)[C@@]2(C(=O)Nc4cc(Cl)ccc42)N(c2cc(Cl)ccc2F)C3=O)cn1" was 5490
